Below, each entry is listed with its recorded growth.
# Test system: NCI-H226 lung
# protocol_notes: NCI-60 one-dose screen, 48 h (100 = growth as untreated, 0 = no growth, -100 = all killed)
# measurement_conditions: 10 µM
Compounds without any hit were thinned out: in the full panel of roughly 83,000, 20% have a hit.
Express your answer in %, writing the number without its unit.

Oc1ccc(-c2[nH]c3ccccc3c2-c2nc3ccccc3o2)cc1 ... 78.5
CC(=O)N[C@H](C(=O)N[C@@H](CCCNC(=N)N)C(=O)N[C@@H](CCCCN)C(=O)N[C@@H](CCCNC(=N)N)C(=O)NC(C(=O)N[C@@H](CC(C)C)C(=O)N[C@@H](CCCNC(=N)N)C(=O)N[C@@]1(C)CCC/C=C\CCC[C@@](C)(C(=O)N[C@@H](CCCNC(=N)N)C(=O)N[C@@H](CCC(=O)O)C(=O)N[C@@H](CC(C)C)C(=O)N[C@H](C(=O)N[C@@H](CCC(=O)O)C(N)=O)C(C)C)NC(=O)[C@H](CCC(N)=O)NC(=O)[C@H](CC(C)C)NC(=O)[C@H](CC(C)C)NC1=O)[C@@H](C)O)C(C)C (stereo partly specified) ... 7.17
O=C1CC(SC(=S)C2CCCC2=O)C(=O)N1 (stereo unspecified) ... 92.4
COc1cc(-c2nn(-c3ccc(NC(=O)NCCNS(=O)(=O)c4ccc(F)cc4)cc3)cc2-c2ccncc2)ccc1Cl ... 36.2
CN1C(C(=O)Nc2ccccn2)=C(O)c2sc(Cl)cc2S1(=O)=O ... 106

Lookup result for `Cc1cc(CSc2ccccc2C(=O)N2CC=C(c3ccccc3)CC2)on1` ; measured growth: 88.4

====

# Test system: SK-MEL-28 melanoma
# protocol_notes: NCI-60 one-dose screen, 48 h (100 = growth as untreated, 0 = no growth, -100 = all killed)
# measurement_conditions: 10 µM
The panel holds about 83,000 compounds, 20% with a hit somewhere; the sample as a whole holds those more often.
value_kind: growth (%)
Express your answer in %, writing the number without its unit.

Solved entries:
CS(=O)(=O)c1nccc(-c2c(-c3cccc(OCc4ccccc4)c3)nc3sccn23)n1 ... 77.1
CCN(CC)CCCC(Nc1c2ccc(Cl)cc2nc2ccc(OC)cc12)c1ccc(F)cc1 (stereo not given) ... -83.5
CNC(=O)c1cn2c3c(c(N4CCN(C)CC4)c(F)cc3c1=O)OC[C@@H]2C ... 108
CCCCc1oc2ccccc2c1C(=O)c1cc(I)c(OCCN(CC)CC)c(I)c1 ... -87.8

Now take the following compound into account.
Lookup result for `COc1ccc(-c2nc(-c3nc4ccc(C)cc4[nH]3)cc3c2[nH]c2ccccc23)cc1` ; measured growth: 71.7

====

Below, each entry is listed with its recorded growth.
# Tested on: HOP-92 NSCLC
# protocol_notes: NCI-60 one-dose screen, 48 h (100 = growth as untreated, 0 = no growth, -100 = all killed)
# measurement_conditions: 10 µM
This is part of a sample that, as a whole, favours compounds with a hit. Of some 83,000 tested, about 20% had one in any assay.
Express your answer in %, writing the number without its unit.

COc1ccc(C(c2ccc(OCCN(C)C)cc2)c2cc3ccccc3c3ccccc23)cc1 (stereo not given) ... 63.6

Item `CC(C)(C)c1nn(-c2ccccc2)c2c1CC1(CN2Cc2ccc(Cl)cc2)C(=O)c2ccccc2C1=O` was tested on HOP-92 NSCLC; the reported growth is 54.8

Item `CN1CCN(CCC(=O)Nc2cccc(-n3cc(-c4ccncc4)c(-c4ccc(Cl)c(O)c4)n3)c2)CC1` was tested on HOP-92 NSCLC; the reported growth is 27.9

Item `Cc1cc(=O)n2nnc3cc(C(F)(F)F)ccc3n12` was tested on HOP-92 NSCLC; the reported growth is 93.9

Item `Cc1cn(-c2cc(F)cc(NC(=O)c3ccc(C)c(Nc4nccc(-c5cccnc5)n4)c3)c2)cn1` was tested on HOP-92 NSCLC; the reported growth is -22

====

# Test system: SW-620 colon
# protocol_notes: NCI-60 one-dose screen, 48 h (100 = growth as untreated, 0 = no growth, -100 = all killed)
# measurement_conditions: 10 µM
About 83,000 compounds went through this panel and 20% of them were active in at least one assay; those are over-represented in the sample as a whole.
value_kind: growth (%)
Express your answer in %, writing the number without its unit.

Solved entries:
Cc1cccc(N=Cc2ccccc2O)c1C ... 112
CS(=O)(=O)c1nccc(-c2c(-c3cccc(O)c3)nc3sccn23)n1 ... 106

Item `CCOC(=O)c1cc(C(=O)c2cc(OC)c(OC)c(OC)c2)n2ncc3ccccc3c12` was tested on SW-620 colon; the reported growth is 35.8

Item `CCOC(=O)c1cc(C(=O)c2ccc(OC)c(OC)c2)n2c1ccc1ccc3cccnc3c12` was tested on SW-620 colon; the reported growth is 12.8

Item COc1cc(/C=C2\CCCC3=C2N=C2SC(C)=CN2C3c2cc(OC)c(OC)c(OC)c2)cc(OC)c1OC (configuration not stated) was tested on SW-620 colon; the reported growth is -0.154

Item `COc1ccc(C(=O)COc2cccc(/C=C3\Cc4ccccc4C3=O)c2)cc1` was tested on SW-620 colon; the reported growth is 89.5

Item CCCN1CN2C(=O)N3CN(CCC)CN4C(=S)N(C1)C2C34 (configuration not stated) was tested on SW-620 colon; the reported growth is 108

====

# Test system: SF-539 CNS
# protocol_notes: NCI-60 one-dose screen, 48 h (100 = growth as untreated, 0 = no growth, -100 = all killed)
# measurement_conditions: 10 µM
Compounds without any hit were thinned out: in the full panel of roughly 83,000, 20% have a hit.
Threshold 90%. growth below it: condition met. growth at it or above: condition not met.

CCOC(=O)c1cc(C(=O)c2cc(OC)c(OC)c(OC)c2)n2ncc3ccccc3c12 ... condition met
Nc1ncc(-c2cnn(C3CCNCC3)c2)cc1-c1nc2ccccc2o1 ... condition met
CC(=O)C1CCC2C3CC=C4CC(SC(=N)N)CCC4(C)C3CCC12C (configuration not stated) ... condition met
Nc1ccc(CC[C@H]2CCC/C=C/[C@@H]3C[C@H](O)C[C@H]3[C@H](O)/C=C/C(=O)O2)cc1 ... condition met
CC(CN(C)C)Oc1ccc(OC(C)CN(C)C)c2c1C(=O)c1ccccc1C2=O (configuration not stated) ... condition met

Now examine the next entry.
Lab note: growth threshold 90%. Does this compound come in strictly under it? `COc1cc(/C=C/c2cc(/C=C/c3ccc(O)c(OC)c3)n(C(=O)Nc3ccccc3Cl)n2)ccc1O`
condition met

====

Below, each entry is listed with its recorded growth.
# System: EKVX NSCLC
# protocol_notes: NCI-60 one-dose screen, 48 h (100 = growth as untreated, 0 = no growth, -100 = all killed)
# measurement_conditions: 10 µM
The panel holds about 83,000 compounds, 20% with a hit somewhere; the sample as a whole holds those more often.
Express your answer in %, writing the number without its unit.

Solved entries:
O=C(CCNC(=O)c1nc(-c2ccccc2)n(-c2ccc(Cl)cc2)n1)NO ... 95.8
CC1(C)N=C(N)N=C(N)N1c1cccc(C#N)c1 ... 67
C[N+]1(CCCCC[N+]2(C)CCCC2)CCCC1 ... 80
O=C(NCCNC(=O)c1ccc(F)cc1)Nc1ccc(-n2cc(-c3ccncc3)c(-c3ccc(Cl)c(O)c3)n2)cc1 ... 11.8
CC(=O)[C@@]12O[C@](C)(c3ccccc3)O[C@@H]1CC1C3CCC4=CC(=O)CC[C@]4(C)C3CC[C@@]12C (some centres not stated) ... 63.5

Lookup result for `Cc1cc(=O)n2nnc3cc(Cl)c(Cl)cc3n12` ; measured growth: 92.6

Lookup result for CC1/C=C/C=C/C=C/C=C/C=C/C=C/C=C/C(O[C@@H]2O[C@H](C)[C@H](O)[C@@H](O)[C@@H]2N)CC(O)C(C(=O)O)C(O)CC(=O)CC(O)CC(O)CC(O)CC(=O)CCCC(=O)CC(=O)OC1C(C)CC(C)C(O)CC(=O)c1ccc(N)cc1 (some centres not stated) ; measured growth: -98.6

Lookup result for `CC(=O)Nc1ccc2c(c1)C(=O)c1cccc(C(=O)O)c1-2` ; measured growth: 107

Lookup result for `Cc1cc(CCNC=O)c(C)c2c1sc1ccccc12` ; measured growth: 56.6

Lookup result for COc1ccc(/C=C2\CCCC3=C2NC(N)=NC3c2ccc(OC)c(OC)c2)cc1OC (configuration not stated) ; measured growth: 82.7

Lookup result for `CN(C)CCCOc1cccc(NC2=C(Cl)C(=O)C(Nc3cccc(OCCCN(C)C)c3)=C(Cl)C2=O)c1` ; measured growth: -95.8

Lookup result for `CS(=O)(=O)c1nccc(-c2c(-c3cccc(O)c3)nc3sccn23)n1` ; measured growth: 88.7

Lookup result for COc1cc2ncnc(NC3CCC(O)CC3)c2cc1OC (configuration not stated) ; measured growth: 80.8

Lookup result for `CCOC(=O)CC(S(=O)(=O)c1ccccc1)S(=O)(=O)c1ccccc1` ; measured growth: 113

Lookup result for `CCOC(=O)c1cc(C(=O)c2ccc(OC)c(OC)c2)n2c1ccc1ccc3cccnc3c12` ; measured growth: 78.6

Lookup result for `COC(=O)CC[C@@H](C)[C@H]1CC[C@H]2[C@@H]3CC[C@@H]4C[C@H](O)CC[C@]4(C)[C@H]3C[C@H](O)[C@]12C` ; measured growth: 103

Lookup result for `CCn1c(SCCc2ccccc2)nnc1-c1nn(-c2ccc(Cl)cc2Cl)c(-c2ccc(Cl)cc2)c1C` ; measured growth: 52.6

Lookup result for `Nc1ccn(Cc2nnc(CCC(=O)c3nc4ccccc4[nH]3)o2)c(=O)n1` ; measured growth: 84.1

Lookup result for `CC(=O)Nc1ccc(S(=O)(=O)c2ccnc3cc(Cl)ccc23)cc1` ; measured growth: 86.7

Lookup result for CC1C(=NC(=O)c2cnccn2)C(C)C(c2ccc(Cl)cc2)NC1c1ccncc1 (configuration not stated) ; measured growth: 88.6

Lookup result for COc1cccc(C2C(C#N)=C(N)Oc3cc(N)ccc32)c1 (configuration not stated) ; measured growth: 55.7

Lookup result for `COc1ccc(-c2cc(-c3ccc(Cl)cc3)nc(SCCCCCCC(=O)NO)n2)cc1OC` ; measured growth: 51.6

Lookup result for `O[C@@H]1CO[C@H]2[C@@H]1OC[C@@H]2O` ; measured growth: 87.6

Lookup result for `CN(C)CCOc1ccc(-c2nc3sccn3c2-c2ccnc(S(C)(=O)=O)n2)cc1` ; measured growth: 102

Lookup result for `CC[C@@H]1NC(=O)[C@H]([C@H](O)[C@H](C)C/C=C/c2ccc(CN3C(=O)CCCC3=O)cc2)N(C)C(=O)[C@H](C(C)C)N(C)C(=O)[C@H](CC(C)C)N(C)C(=O)[C@H](CC(C)C)N(C)C(=O)[C@@H](C)NC(=O)[C@H](C)NC(=O)[C@H](CC(C)C)N(C)C(=O)[C@H](C(C)C)NC(=O)[C@H](CC(C)C)N(C)C(=O)CN(C)C1=O` ; measured growth: 37.4
